assayTarget: Tyrosine-protein phosphatase non-receptor type 7 (Homo sapiens)
Sequence (P35236 whole entry): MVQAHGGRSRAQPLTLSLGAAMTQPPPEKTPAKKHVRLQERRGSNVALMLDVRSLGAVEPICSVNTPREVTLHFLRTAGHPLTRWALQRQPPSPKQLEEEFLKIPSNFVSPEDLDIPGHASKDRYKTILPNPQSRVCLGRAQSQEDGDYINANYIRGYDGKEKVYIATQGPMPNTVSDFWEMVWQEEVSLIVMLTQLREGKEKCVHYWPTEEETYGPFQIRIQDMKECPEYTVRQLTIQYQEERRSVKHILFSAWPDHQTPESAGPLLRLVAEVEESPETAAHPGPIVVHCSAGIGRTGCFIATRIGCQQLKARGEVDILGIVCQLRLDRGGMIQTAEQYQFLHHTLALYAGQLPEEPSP
protocolDescription: HePTP (PTPN7) phosphatase inhibitor potency, SAR follow-up, biochemical, set 2 (AID 449736)
Format: functional
Activity calls are given as the source filed them.
Provide the recorded IC50 for the entries that follow.

input: Indicate its recorded IC50; the compound in question is O=C(O)COc1ccc(/C=N/NC(=O)c2ccc(-c3csc(Nc4ccc(Cl)cc4)n3)cc2)cc1
output: 0.193 µM (active)

input: Provide IC50 value for the following compound: CCOc1cc(/C=C(/C#N)c2cccc(F)c2)cc(Cl)c1OCc1ccc(C(=O)O)cc1
output: 2.25 µM (active)

input: In one line, give reported IC50 of the entry Nc1c(C(=O)N2CCOCC2)sc(=S)n1-c1ccc(F)c(Cl)c1 .
output: > 100 µM (inactive)

input: Indicate its recorded IC50; the compound in question is C/C(=N/NC(=O)c1ccccc1)c1ccc(OCC(=O)O)cc1
output: > 100 µM (inactive)

---

assayTarget: Heat shock factor protein 1 (Mus musculus, UniProt P38532)
Sequence (P38532 whole entry): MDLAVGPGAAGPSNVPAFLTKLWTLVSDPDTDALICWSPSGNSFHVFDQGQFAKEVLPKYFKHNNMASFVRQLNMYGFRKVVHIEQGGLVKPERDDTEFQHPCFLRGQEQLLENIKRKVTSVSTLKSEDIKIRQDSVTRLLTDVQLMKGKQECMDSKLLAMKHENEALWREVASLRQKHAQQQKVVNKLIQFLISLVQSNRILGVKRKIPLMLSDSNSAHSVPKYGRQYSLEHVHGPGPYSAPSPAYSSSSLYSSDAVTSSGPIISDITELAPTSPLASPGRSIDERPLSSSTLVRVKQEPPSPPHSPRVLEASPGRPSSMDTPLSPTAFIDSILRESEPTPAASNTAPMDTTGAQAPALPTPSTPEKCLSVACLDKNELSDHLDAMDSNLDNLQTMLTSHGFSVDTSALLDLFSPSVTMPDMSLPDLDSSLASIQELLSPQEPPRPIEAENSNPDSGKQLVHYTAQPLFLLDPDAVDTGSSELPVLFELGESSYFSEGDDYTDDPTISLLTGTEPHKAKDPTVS
protocolDescription: HSF1 potentiators in luciferase reporter cells, confirmation, cell-based, NIH3T3, luminescence, dose retest (AID 435004);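 note: stress induced by proteasome inhibitor MG132 added 30 min after compound; luciferase reporter driven by HSF1 response element in NIH3T3 cells; actives raise luminescence as potentiators of the MG132 stress response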
Format: functional
Active and inactive are the calls of the source.
Your response should consist of one outcome taken from active, inactive

input: # fetch the recorded call for COc1ccc2[nH]c(C)c(CCNc3ccc(C(F)(F)F)cc3[N+](=O)[O-])c2c1 here
output: inactive

input: Please let me know the test result on file for CCOC(=O)N1CCN(C(=O)CS(=O)(=O)c2cn(Cc3ccc(F)cc3)c3ccccc23)CC1 .
output: inactive

input: Please state the recorded outcome for this molecule: CCCc1nc2oc3cc(OC)ccc3c(=O)c2c(=O)n1CCc1ccccc1
output: inactive

input: Short answer needed: outcome of this test for Cc1ccc(S(=O)(=O)c2c(C)cc(C)nc2N2CCCCC2)cc1 ?
output: inactive

input: Hi team, can someone confirm the assay call for C=CCNC(=O)c1c(N)n(Cc2ccco2)c2nc3ccccc3nc12 ?
output: active

input: Dear all, I need the recorded test outcome for Cc1ccc(-c2cc(C(=O)N3N=C(C(F)F)CC3(O)C(F)F)c3ccccc3n2)cc1C (centres undefined) , thank you.
output: active

input: Tell me the recorded outcome of this test for COC(=O)Cn1c2ccc(OC)cc2c2nc(C)sc21 .
output: inactive

input: Recorded call for O=C(Nc1ccn(Cc2ccccc2F)n1)c1ccc(COc2ccc(Cl)cc2Cl)o1 ?
output: active

input: State the result this test recorded for CC(C)c1ccc(C2NC(=O)c3ccccc3O2)cc1 (centres undefined) .
output: active

input: How was CNc1c(NS(=O)(=O)c2ccc(F)c(Cl)c2)c(=O)oc2ccccc12 classified in this test?
output: inactive

input: Could you kindly confirm the outcome this assay logged for Cc1cccc(C)c1NC(=O)COC(=O)c1cccc2c1C(=O)c1ccccc1C2=O ?
output: active

input: Any idea what this test logged for Cc1nc(S(=O)(=O)c2ccc(Cl)cc2)c(NCc2ccccc2)o1 ?
output: inactive

input: I would be grateful if you could indicate the recorded call for O=C(CN1C(=O)NC2(CCCC2)C1=O)NCCN1C(=O)S/C(=C\c2ccccc2F)C1=O .
output: inactive

input: Recorded test outcome, item Clc1cccc(CN2CCN(Cc3nc(CCc4ccccc4)no3)CC2)c1
output: inactive

input: Assay outcome for COc1ccc(NC(=O)COC(=O)/C=C/C(=O)OCC(=O)Nc2ccc(OC)c(Cl)c2)cc1Cl : what was it?
output: active

input: I'd appreciate the recorded outcome for C=C(C)CN(CC)c1nc(N)c2c(N)nc3c(c2c1C#N)CC(=O)N3C12CC3CC(CC(C3)C1)C2 from this test.
output: inactive

input: Name the outcome recorded for CCc1cc2c(SCC#N)ncnc2s1 in the assay.
output: inactive

input: Could you check what this test reported for COc1cccc(NC(=S)NC(=O)c2c(Cl)c(C)nn2C)c1 ?
output: active

input: Any idea what this test logged for COc1ccc(/N=C(\C)C2=C(O)c3ccccc3C2=O)cc1 ?
output: inactive

input: Please let me know the test result on file for O=C1N/C(=C\c2ccc(O)cc2)C(O)=C1/C=N/Cc1ccccc1 .
output: active

input: Tell me the recorded outcome of this test for CN1CCN(Cc2c(O)ccc3cc(Br)ccc23)CC1 .
output: active

input: Please indicate how the test categorized FC(F)(F)c1ccc(Sc2nnc(-c3cccs3)n2CC2CCCO2)nc1 (centres undefined) .
output: inactive

input: Which outcome was entered for the molecule CCC(NC(=O)/C(=C\c1ccc2c(c1)OCO2)NC(C)=O)C(=O)O (centres undefined) in this test?
output: inactive

input: Any idea what this test logged for COc1ccc(N/C=C2/C(=O)NC(=S)N(Cc3ccccc3)C2=O)c(OC)c1 ?
output: active

input: Test call for this molecule, please: O=c1c2ccccc2[nH]c(=S)n1CCC1=CCCCC1
output: inactive

input: For this molecule, state the assay outcome: O=C(CN1c2ccccc2S(=O)(=O)c2ccccc21)NCc1ccc(F)cc1
output: inactive

input: Short answer needed: outcome of this test for O=C1c2ccccc2C(=O)N1CCC(=O)N1CCCc2ccccc21 ?
output: inactive

input: Kindly provide the recorded test outcome for the following molecule: COc1ccc(C2N(C(=O)CN3CCCC3)CCCN2S(=O)(=O)c2ccccc2)cc1 (centres undefined)
output: inactive

input: Dear all, I need the recorded test outcome for Cc1ccc(CSc2nc3ccccc3c(=O)n2CCCC(=O)NCc2ccco2)cc1 , thank you.
output: inactive

input: Please share the test call associated with CC(Oc1ccc(Cl)cc1)C(=O)/C=C/N(C)C (centres undefined) .
output: inactive

input: Record request — test call for CCN(CC)CCOc1ccc(/C(=C(/Cl)c2ccccc2)c2ccccc2)cc1 [CLOMIPHENE]
output: active

input: Given CCCOC(=O)c1ccc(Oc2c[nH]nc2-c2ccc(O)cc2O)cc1 , state the outcome it received in this test.
output: inactive

input: # fetch the recorded call for O=C(Nc1ccc(Cl)cc1)Nc1csc([N+](=O)[O-])c1 here
output: active
